Structures can show the parent of a compound that is named as a salt.
Assay read-out pKi; system under study: human Factor XIa (Homo sapiens (Human), UniProt P03951).
Sequence (P03951 388-625): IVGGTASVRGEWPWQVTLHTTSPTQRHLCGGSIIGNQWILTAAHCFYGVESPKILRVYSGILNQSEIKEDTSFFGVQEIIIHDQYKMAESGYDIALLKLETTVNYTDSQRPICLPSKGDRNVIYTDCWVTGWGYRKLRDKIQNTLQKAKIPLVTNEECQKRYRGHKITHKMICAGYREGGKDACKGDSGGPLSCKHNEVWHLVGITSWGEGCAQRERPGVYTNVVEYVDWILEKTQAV
Sequence (P03951 19-387 partner): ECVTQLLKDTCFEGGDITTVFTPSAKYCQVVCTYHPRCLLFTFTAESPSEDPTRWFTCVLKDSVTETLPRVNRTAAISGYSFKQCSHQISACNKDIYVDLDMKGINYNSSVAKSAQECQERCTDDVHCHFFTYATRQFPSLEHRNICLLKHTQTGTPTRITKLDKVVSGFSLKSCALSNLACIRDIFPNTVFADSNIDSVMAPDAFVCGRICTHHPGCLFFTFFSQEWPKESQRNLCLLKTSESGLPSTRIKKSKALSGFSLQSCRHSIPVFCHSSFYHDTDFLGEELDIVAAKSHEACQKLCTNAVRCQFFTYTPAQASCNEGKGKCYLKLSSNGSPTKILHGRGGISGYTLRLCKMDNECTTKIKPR
One number for each entry, as −log10 of the molar value.

Solved entries (count: 2):
| compound | study_target | experimental_result |
| --- | --- | --- |
| COC(=O)Nc1ccc2c(c1)NC(=O)[C@H](C)CCC[C@H](NC(=O)c1cn(-c3c(F)ccc(Cl)c3F)cn1)c1cc-2ccn1 | human Factor XIa (Homo sapiens (Human), UniProt P03951) | 7.98 |
| CCOC(=O)C1CCCC[C@H](NC(=O)c2cnn(-c3cccc(Cl)c3F)c2)c2cc(ccn2)-c2ccc(NC(=O)OC)cc2N1 (stereo partly drawn) [Example 26, TFA salt] | human Factor XIa (Homo sapiens (Human), UniProt P03951) | 6.75 |

// for each compound below, give its pKi
1. COC(=O)Nc1ccc2c(c1)NC(=O)CCCC(C)[C@H](NC(=O)c1nnn(-c3cccc(Cl)c3F)c1C)c1cc-2ccn1 (stereo partly drawn)
2. Cc1c(C(=O)N[C@H]2CCC[C@H](C)C(=O)Nc3cc(-c4ccn[nH]4)ccc3-c3ccnc2c3)nnn1-c1cccc(Cl)c1F [Example 165, TFA salt]

Resp:
1. 7.28
2. 5.29

# compound COC(=O)Nc1ccc2c(c1)C(=O)NC(C)CCC[C@H](NC(=O)c1cnn(-c3cccc(Cl)c3F)c1C)c1cc-2ccn1 (single isomer, unassigned) ; its pKi = 6.51

----------
Assay read-out pKi; system under study: human Factor XIa (Homo sapiens (Human)).
Counter-ions that a name gives are not always drawn.
Answers are plain numbers, as −log10 of the molar value.

Solved entries (count: 2):
| compound | pKi |
| --- | --- |
| Cc1c(C(=O)N[C@H]2CCC[C@@H](C)C(=O)Nc3cc(C(N)=O)ccc3-c3ccnc2c3)cnn1-c1cccc(Cl)c1F [Example 190, TFA salt] | 8.18 |
| COC(=O)Nc1ccc2c(c1)NC(=O)[C@H](C)CCC[C@H](NC(=O)c1cnn(-c3cccc(Cl)c3)c1C)c1nc-2c[nH]1 | 7.89 |

We next turn to a different compound, shown below.
# compound `Cc1c(C(=O)N[C@H]2CCC[C@@H](C)C(=O)Nc3cc(NC(=O)C(F)(F)F)ccc3-c3ccnc2c3)nnn1-c1cccc(Cl)c1F` ; its pKi = 6.26
